Where a name gives a salt, the structure may show the parent alone.
List of Ki tested on adenosine A2a receptor (Homo sapiens, UniProt P29274).
Sequence (P29274 whole entry): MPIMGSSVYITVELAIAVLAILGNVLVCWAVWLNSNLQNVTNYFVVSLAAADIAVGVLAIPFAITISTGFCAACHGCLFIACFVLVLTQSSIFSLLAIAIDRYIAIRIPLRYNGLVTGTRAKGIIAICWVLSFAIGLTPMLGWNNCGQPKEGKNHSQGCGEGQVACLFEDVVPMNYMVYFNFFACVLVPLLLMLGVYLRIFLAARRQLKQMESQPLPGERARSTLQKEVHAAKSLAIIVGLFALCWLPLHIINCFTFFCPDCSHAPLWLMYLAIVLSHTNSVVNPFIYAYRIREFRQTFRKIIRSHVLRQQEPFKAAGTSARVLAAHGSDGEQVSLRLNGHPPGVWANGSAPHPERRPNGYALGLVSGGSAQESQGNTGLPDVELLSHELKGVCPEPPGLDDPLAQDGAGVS
Answers are plain numbers, in nM.

compound: O=C(N[C@H]1C[C@@H](n2cnc3c(NCC(c4ccccc4)c4ccccc4)nc(N[C@H]4CCNC4)nc32)[C@H](O)[C@@H]1O)C1CCC1 [Example 6, hydrochloride]
measured_endpoint: Ki
result_number: 4

Next item in the queue.
[Q] // Input: O=C(N[C@H]1C[C@@H](n2cnc3c(NCC(c4ccccc4)c4ccccc4)nc(N[C@@H]4CCN(C(=O)NC5CCN(c6ccccn6)CC5)C4)nc32)[C@H](O)[C@@H]1O)C1CCC1 [Example 15, trifluoroacetate] . Output its Ki only.
[A] 9

Recorded values, source patent US20090281127A1.
